assay: JC-1 mitochondrial potential readout, lung cancer cells – cell-based, A549, JC-1 fluorescence, basal, 24 h, 100 nL, profiling panel (AID 1138); settings: higher = more signal;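 note: A549 lung adenocarcinoma cells under basal conditions with no added stimulus; test concentration not given here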
readoutName: z-score
Quick one: just the number, no unit, thanks!

Give the measured z-score of CC(C)=CCCC=C(C)C(O)C1C=CC2C(=O)N(c3ccccc3)C(=O)C2N1Nc1ccc(C#N)cc1 (stereo not drawn) .
-0.902

Give the measured z-score of COCCCNC(=O)[C@@]1(Sc2ccc(C)cc2)CC(=O)N(Cc2ccccc2C(F)(F)F)[C@@H]1c1ccc(CO)cc1I .
-0.288

###

assay: budding yeast growth modifiers under rapamycin – strain BY4716, OD600, 96 h, primary screen (AID 1091); note: test concentration not given here; settings: S. cerevisiae BY4716 + rapamycin, higher = more signal, called active from +8 up or from −8 down
Listed next: entries and their corresponding z-score.
Quick one: just the number, no unit, thanks!

- compound: "CCCCC(=C=CC[C@H](O)c1ccc(CO)o1)CCO"
  readoutName: "z-score"
  value: -0.0978
- compound: "COC(=O)[C@@]1(Cc2ccc(F)cc2)[C@H]2c3cc(C(=O)N(C)C)n(CCc4ccc(O)c(O)c4)c3C[C@H]2CN1C(=O)c1ccccc1"
  readoutName: "z-score"
  value: 0.987
- compound: "COCC(=C=CC[C@H](O)c1ccccc1OCCO)C[C@H](O)COCc1ccccc1"
  readoutName: "z-score"
  value: -0.619
- compound: "Cc1ccc(F)cc1S(=O)(=O)N[C@H]1CCN(Cc2ccc(OC(C)C)cc2)C1"
  readoutName: "z-score"
  value: -1.03
- compound: "O=C1C2C=CC(C(O)C3CCCCC3)N(n3cnnc3)C2C(=O)N1Cc1ccccc1 (stereo not drawn)"
  readoutName: "z-score"
  value: -0.98

Give the measured z-score of COc1ccc(C(=O)Nc2cccc(CN3C(=O)[C@@]4(O[C@@H](CC(=O)N5CCC[C@H]5CO)[C@H]([Si](C)(C)c5ccc(OC)cc5)[C@H]4C)c4ccccc43)c2)cc1 .
-1.2

###

Listed next: entries and their corresponding composite z-score.
target: Dickkopf-related protein 1 (Homo sapiens); assay: small molecules binding DKK1 protein – biochemical, small-molecule microarray, 635 nm fluorescence scan, primary screen (AID 1106); conditions: higher = more signal;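 note: score merges emission near 667 nm with signal to noise over three replicate slides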
Quick one: just the number, no unit, thanks!

- compound: "COC(=O)[C@@]1(Cc2ccccc2)[C@H]2c3cc(C(=O)N(C)C)n(Cc4ccc(S(C)(=O)=O)cc4)c3C[C@H]2CN1C(=O)c1ccccc1"
  composite z-score: -0.618
- compound: "COc1cc(C(O)C2C=CC3C(=O)N(c4ccccc4)C(=O)C3N2Nc2ccccc2)cc(OC)c1OC (stereo unspecified)"
  composite z-score: -0.586
- compound: "CC(C)(C)N1CC=CC23O[C@@H]4C=CCOC(=O)[C@@H]4[C@H]2C(=O)N(CCO)[C@@H]3C1=O (stereo partly specified)"
  composite z-score: -1.44
- compound: "C=C(COC)C(=O)CC[C@H](OC(=O)c1cccnc1)c1ccc(OCCO)cc1"
  composite z-score: 0.624
- compound: "[N-]=[N+]=Nc1ccccc1C[C@]1(C(=O)N2CCOCC2)N=C(c2ccc(OCCCO)cc2)O[C@H]1c1ccccc1N=[N+]=[N-]"
  composite z-score: 1.42

// next item, composite z-score requested
Give the measured composite z-score of COC(=O)C1=CC(CCCO)=CC(c2cccs2)N(Cc2cc3c(cc2Br)OCO3)C=C1C(=O)OC (stereo unspecified) .
0.166
